Reference source for all entries: patent US9587266B2

Target: R218K + L342A luciferase (Photinus pyralis, UniProt P08659, L342A/R218K)
Construct: The full firefly (Photinus pyralis) luciferase gene was PCR amplified from pGL3 (Promega); GST (N, cleaved yes); made in house; host or cells: E. coli JM109
Sequence (P08659 whole entry R218K/L342A): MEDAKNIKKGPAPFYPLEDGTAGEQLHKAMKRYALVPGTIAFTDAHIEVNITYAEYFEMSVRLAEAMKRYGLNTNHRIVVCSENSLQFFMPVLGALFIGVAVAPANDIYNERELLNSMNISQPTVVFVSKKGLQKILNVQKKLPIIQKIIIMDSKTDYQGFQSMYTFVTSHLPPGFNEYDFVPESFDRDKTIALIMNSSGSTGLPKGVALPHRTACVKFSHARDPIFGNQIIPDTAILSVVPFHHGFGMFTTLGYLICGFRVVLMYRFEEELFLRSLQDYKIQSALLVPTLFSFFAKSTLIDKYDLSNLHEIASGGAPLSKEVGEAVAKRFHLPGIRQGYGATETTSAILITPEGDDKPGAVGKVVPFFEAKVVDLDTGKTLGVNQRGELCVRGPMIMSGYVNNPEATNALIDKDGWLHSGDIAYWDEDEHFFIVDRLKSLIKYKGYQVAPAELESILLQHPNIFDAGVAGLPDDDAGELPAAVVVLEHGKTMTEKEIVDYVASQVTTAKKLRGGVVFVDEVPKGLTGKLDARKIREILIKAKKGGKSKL
Assay type: biochemical
As shown below, each of these compounds has a reported Maximum Emission Wavelength of Selected Substrate value.
All answers are understood in nm, so give the number only.

Known results for compounds:
CN1CCOc2cc3nc(C4=NC(C(=O)O)CS4)sc3cc21 (centres unmarked) [CycLuc4]
616
CC1=CC(C)(C)Nc2cc3sc(C4=NC(C(=O)O)CS4)nc3cc21 (centres unmarked) [CycLuc5]
633
CN1CCc2cc3nc(C4=N[C@@H](C(=O)O)CS4)sc3cc21 [CycLuc2]
617
CN(C)c1ccc2nc(C3=NC(C(=O)O)CS3)sc2c1 (centres unmarked) [6′-Me2NLH2]
628

Now look at this entry.
Documented Maximum Emission Wavelength of Selected Substrate of CNc1ccc2nc(C3=NC(C(=O)O)CS3)sc2c1 (centres unmarked) [6′-MeNHLH2, Monomethylaminoluciferin] : 612

---

Biological target: L286M + S347A luciferase (Photinus pyralis, UniProt P08659, L286M/S347A)
Construct: The full firefly (Photinus pyralis) luciferase gene was PCR amplified from pGL3 (Promega); GST (N, cleaved yes); made in house; host or cells: E. coli JM109
Sequence (P08659 whole entry L286M/S347A): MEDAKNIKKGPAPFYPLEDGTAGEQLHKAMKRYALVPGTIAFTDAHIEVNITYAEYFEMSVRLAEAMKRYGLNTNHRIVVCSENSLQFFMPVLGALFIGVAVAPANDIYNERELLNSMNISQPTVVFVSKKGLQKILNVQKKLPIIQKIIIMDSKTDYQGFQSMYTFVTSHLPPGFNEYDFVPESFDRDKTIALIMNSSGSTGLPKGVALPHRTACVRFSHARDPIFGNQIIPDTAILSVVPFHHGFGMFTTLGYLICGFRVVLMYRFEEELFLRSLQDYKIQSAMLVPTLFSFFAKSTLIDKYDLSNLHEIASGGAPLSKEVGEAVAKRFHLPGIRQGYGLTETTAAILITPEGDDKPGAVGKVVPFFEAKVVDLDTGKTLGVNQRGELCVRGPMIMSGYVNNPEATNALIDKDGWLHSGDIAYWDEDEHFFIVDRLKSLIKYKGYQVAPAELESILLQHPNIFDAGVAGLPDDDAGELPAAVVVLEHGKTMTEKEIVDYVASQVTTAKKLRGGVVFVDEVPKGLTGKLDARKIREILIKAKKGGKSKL
Test: Bioluminescence emission scan
Assay type: biochemical
As shown below, each of these compounds has a reported Maximum Emission Wavelength of Selected Substrate value.
All answers are understood in nm, so give the number only.

Known results for compounds:
O=C(O)[C@H]1CSC(c2nc3cc4c(cc3s2)NCC4)=N1
595
O=C(O)C1CSC(c2nc3cc4c(cc3s2)NCCO4)=N1 (stereo not drawn)
590
CN1CCCc2cc3nc(C4=NC(C(=O)O)CS4)sc3cc21 (stereo not drawn)
605
CN1CCOc2cc3nc(C4=NC(C(=O)O)CS4)sc3cc21 (stereo not drawn)
602

Now look at this entry.
Kindly note: L286M + S347A luciferase (Photinus pyralis, UniProt P08659, L286M/S347A), `CCCO` , Maximum Emission Wavelength of Selected Substrate value reported: 593

---

Target: WT luciferase (Photinus pyralis, UniProt P08659)
Construct: The full firefly (Photinus pyralis) luciferase gene was PCR amplified from pGL3 (Promega); GST (N, cleaved yes); made in house; host or cells: E. coli JM109
Sequence (P08659 whole entry): as the sequence (P08659 whole entry R218K/L342A) above, with K218R, A342L counted along it
Assay type: biochemical
Details: Table 3
Experimental: Purified mutant luciferases were used in bioluminescence emission and burst kinetics scans. Each purified protein in 20 mM Tris pH 7.6, 0.1 mM EDTA, 1 mM TCEP and 0.4 mg/mL BSA was added to 2× substrate in 20 mM Tris pH 7.6, 0.1 mM EDTA, 8 mM MgSO4, 4 mM ATP, and 1 mM TCEP in a cuvette. Luciferase was rapidly injected into a cuvette containing substrate, and the emission from 400-800 nm was recorded in a SPEX FluoroMax-3 fluorimeter with closed excitation slits.
property-label: Maximum Emission Wavelength of Selected Substrate (nm)
All answers are understood in nm, so give the number only.

Known results for compounds:
CC1=CC(C)(C)Nc2cc3sc(C4=NC(C(=O)O)CS4)nc3cc21 (stereo not drawn) [CycLuc5]
637
Nc1ccc2nc(C3=N[C@@H](C(=O)O)CS3)sc2c1 [6′-NH2LH2, 6′-aminoluciferin]
594
CN1CCCc2cc3nc(C4=NC(C(=O)O)CS4)sc3cc21 (stereo not drawn) [CycLuc8]
610
CN(C)c1ccc2nc(C3=NC(C(=O)O)CS3)sc2c1 (stereo not drawn) [6′-Me2NLH2]
619
O=C(O)[C@H]1CSC(c2nc3cc4c(cc3s2)NCC4)=N1 [CycLuc1]
601
CNc1ccc2nc(C3=NC(C(=O)O)CS3)sc2c1 (stereo not drawn) [6′-MeNHLH2, Monomethylaminoluciferin]
608

Documented Maximum Emission Wavelength of Selected Substrate of O=C(O)C1CSC(c2nc3cc4c(cc3s2)NCCO4)=N1 (stereo not drawn) [CycLuc3] : 599

Documented Maximum Emission Wavelength of Selected Substrate of O=C(O)C1CSC(c2nc3cc4c(cc3s2)NCCC4)=N1 (stereo not drawn) [CycLuc7] : 607

Documented Maximum Emission Wavelength of Selected Substrate of CN1CCOc2cc3nc(C4=NC(C(=O)O)CS4)sc3cc21 (stereo not drawn) [CycLuc4] : 607
